Test: Plasma Protein Binding, monkey
Type: in vitro ADME
Settings: read-out: Plasma Protein Binding PPB (mon) % (converted)
Quick reference for fraction unbound at 5.5 h, 1 μM among some compounds
Keep it simple and answer with nothing but the number.

- compound: "CC(C)(O)Cn1cnc2c(-c3cccnc3)nc(-c3ccc(C(F)(F)F)nc3)cc2c1=O [Compound 9]"
  assay_metric: "fraction unbound at 5.5 h, 1 μM"
  meas_value: 0.149

Query: Form field: reported fraction unbound at 5.5 h, 1 μM of C[C@@H](CO)n1cnc2c(-c3cccnc3)nc(-c3ccc(C(F)(F)F)cn3)cc2c1=O [Compound 46]
Response: 0.113

###

Quick reference for pIC50 among some compounds
Target: AHR (Homo sapiens, UniProt P35869)
Construct: other cell line with a DRE-luciferase reporter stably transfected; endogenous in cells
Experiment: DRE-Luciferase Reporter Assay, HepG2 AhR-Lucia reporter cells
Conditions: with AHR activating ligand at EC50, read-out: HepG2-Luc IC50
pIC50: −log10 of the molar value.

Worked examples, 3 compounds total:
- compound: "Cc1ncc(-c2cc3c(=O)n([C@@H](C)CO)cnc3c(-c3cccnc3)n2)cn1 [Compound 93]"
  pIC50: "6.30 to 7.00"
- compound: "CC(C)(O)Cn1cnc2c(-c3cccnc3)nc(-c3cnc(C(F)(F)F)s3)cc2c1=O [Compound 87]"
  pIC50: "> 7.00"
- compound: "Cn1cc(-c2nc(-c3ccc(C(F)(F)F)nc3)cc3c(=O)n(C[C@@H](O)C(F)(F)F)cnc23)cn1 [Compound 110]"
  pIC50: "> 7.00"

Turning now to a further record.
Query: Form field: reported pIC50 of C[C@@H](C(=O)N(C)C)n1cnc2c(-c3cccnc3)nc(-c3ccc(C(F)(F)F)nc3)cc2c1=O [Compound 157]
Response: > 7.00

###

Molecular target: AHR (Homo sapiens)
Construct: other cell line with a DRE-luciferase reporter stably transfected; endogenous in cells
Experiment: DRE-Luciferase Reporter Assay, HepG2 AhR-Lucia reporter cells
Details: with AHR activating ligand at EC50, read-out: HepG2-Luc IC50
assay_metric: IC50

Worked examples, 3 molecules total:
- smi: "C[C@@H](CO)n1cnc2c(-c3cccc4c3OCO4)nc(-c3ccc(Cl)cc3)cc2c1=O"
  IC50: "100 to 500 nM"
- smi: "Cc1nc(-c2cc3c(=O)n([C@@H](C)CO)cnc3c(-c3cccnc3)n2)cs1"
  IC50: "> 500 nM"
- smi: "O=c1[nH]cnc2c(-c3cccnc3)nc(-c3ccc(C(F)(F)F)nc3)cc12"
  IC50: "< 100 nM"

Query: Form field: reported IC50 of C[C@@H](n1cnc2c(-c3cccc(F)c3)nc(-c3ccc(Cl)cc3)cc2c1=O)C(C)(C)O
Response: < 100 nM

###

Quick reference for pIC50 among some molecules
Molecular target: AHR (Homo sapiens, UniProt P35869)
Construct: other cell line with a DRE-luciferase reporter stably transfected; endogenous in cells
Sequence (P35869 11-848): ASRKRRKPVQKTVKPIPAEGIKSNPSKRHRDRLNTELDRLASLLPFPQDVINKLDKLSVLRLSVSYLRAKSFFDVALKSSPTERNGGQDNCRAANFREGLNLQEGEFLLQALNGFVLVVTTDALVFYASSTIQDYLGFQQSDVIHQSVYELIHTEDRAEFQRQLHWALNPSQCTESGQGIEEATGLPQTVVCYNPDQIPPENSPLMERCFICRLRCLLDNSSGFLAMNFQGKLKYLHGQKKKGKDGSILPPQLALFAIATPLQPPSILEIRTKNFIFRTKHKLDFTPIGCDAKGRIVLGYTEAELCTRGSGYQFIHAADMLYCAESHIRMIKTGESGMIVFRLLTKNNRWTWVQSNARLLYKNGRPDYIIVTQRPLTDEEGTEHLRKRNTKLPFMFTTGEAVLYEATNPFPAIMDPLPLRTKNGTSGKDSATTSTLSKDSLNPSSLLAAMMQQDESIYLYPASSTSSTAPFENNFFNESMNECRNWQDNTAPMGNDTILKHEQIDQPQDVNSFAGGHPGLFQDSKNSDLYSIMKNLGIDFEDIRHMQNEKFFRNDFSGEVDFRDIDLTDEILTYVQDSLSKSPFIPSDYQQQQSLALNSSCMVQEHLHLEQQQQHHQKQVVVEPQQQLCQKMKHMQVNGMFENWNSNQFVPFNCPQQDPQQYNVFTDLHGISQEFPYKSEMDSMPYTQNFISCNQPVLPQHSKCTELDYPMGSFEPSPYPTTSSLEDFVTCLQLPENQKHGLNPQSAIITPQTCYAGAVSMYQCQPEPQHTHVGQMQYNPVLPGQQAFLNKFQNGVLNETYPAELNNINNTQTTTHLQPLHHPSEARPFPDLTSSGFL
Assay: DRE-Luciferase Reporter Assay, HepG2 AhR-Lucia reporter cells
Conditions: with AHR activating ligand at EC50, read-out: HepG2-Luc IC50
pIC50: −log10 of the molar value.

Worked examples, 3 molecules total:
- smi: "C[C@@H](CO)n1cnc2c(-c3cccnc3)nc(-c3cncs3)cc2c1=O"
  meas_value: "< 6.30"
- smi: "C[C@H](O)Cn1cnc2c(-c3cccnc3)nc(-c3ccc(C(F)(F)F)cn3)cc2c1=O"
  meas_value: "> 7.00"
- smi: "C[C@@H](CO)n1cnc2c(-c3cn[nH]c3)nc(-c3ccc(C(F)(F)F)cn3)cc2c1=O"
  meas_value: "> 7.00"

Turning now to a further record.
Query: Form field: reported pIC50 of C[C@@H](CO)n1cnc2c(-n3cccn3)nc(-c3ccc(Cl)cc3)cc2c1=O
Response: > 7.00

###

Quick reference for solubility at 2 h among some compounds
Assay: Solubility Determination Assay in PBS pH 1.6 and pH 7.4
Type: physicochemical
Conditions: PBS buffer, aqueous buffer, kinetic from dmso stock, PBS pH 1.6, 25° C., read-out: Aq. Solubility at pH = 1.6

Worked examples, 5 compounds total:
- compound: "Cn1cc(-c2nc(-c3ccc(Cl)cc3)cc3c(=O)n([C@H]4COC[C@H]4O)cnc23)cn1"
  solubility at 2 h: "0.1 to 1 µM"
- compound: "C[C@H](n1cnc2c(-c3cccnc3)nc(-c3cccnc3)cc2c1=O)C(C)(C)O"
  solubility at 2 h: "≥ 1 µM"
- compound: "Cn1cc(-c2nc(-c3cnc(C(F)(F)F)nc3)cc3c(=O)n(CC(C)(C)O)cnc23)cn1"
  solubility at 2 h: "≥ 1 µM"
- compound: "CC(C)(O)Cn1cnc2c(-c3cccnc3)nc(-c3ccc(C(F)(F)F)cn3)cc2c1=O"
  solubility at 2 h: "≥ 1 µM"
- compound: "O=c1c2cc(-c3ccc(Cl)cc3)nc(-c3cccnc3)c2ncn1[C@@H]1COC[C@@H]1O (stereo in doubt)"
  solubility at 2 h: "≥ 1 µM"

Query: Form field: reported solubility at 2 h of Cn1cc(-c2nc(-c3ccc(Cl)cc3)cc3c(=O)n([C@H]4COC[C@@H]4O)cnc23)cn1
Response: 0.1 to 1 µM

Query: Again, but for CC(C)(O)Cn1cnc2c(-c3cccnc3)nc(-c3ccc(C4CC4)nc3)cc2c1=O
Response: ≥ 1 µM

Query: Again, but for O=c1c2cc(-c3ccc(C(F)(F)F)cn3)nc(-c3cccnc3)c2ncn1C[C@@H](O)C(F)(F)F
Response: ≥ 1 µM

Query: Again, but for Cc1ccc(-c2cc3c(=O)n([C@@H](C)CO)cnc3c(-c3cccc(F)c3)n2)cc1
Response: ≥ 1 µM

Query: Again, but for O=c1c2cc(-c3ccc(C(F)(F)F)nc3)nc(-c3cccnc3)c2ncn1[C@H]1COC[C@H]1O
Response: ≥ 1 µM

Query: Again, but for C[C@H](O)Cn1cnc2c(-c3cnn(C)c3)nc(-c3ccc(C(F)(F)F)cn3)cc2c1=O
Response: 0.1 to 1 µM

Query: Again, but for Cn1cc(-c2nc(-c3ccc(C(F)(F)F)nc3)cc3c(=O)n(C[C@@H](O)C(F)(F)F)cnc23)cn1
Response: < 0.1 µM

Query: Again, but for C[C@@H](CO)n1cnc2c(-c3cnn(C)c3)nc(-c3ccc(Cl)cc3)cc2c1=O
Response: 0.1 to 1 µM

Query: Again, but for Cc1ncc(-c2cc3c(=O)n([C@@H](C)CO)cnc3c(-c3cccnc3)n2)s1
Response: ≥ 1 µM

Query: Again, but for C[C@@H](CO)n1cnc2c(-c3cccnc3)nc(-c3ccc(C4CC4)nc3)cc2c1=O
Response: ≥ 1 µM

###

Biological target: CYP3A4 (Homo sapiens)
Construct: from tissue; host or cells: human liver microsomes (HLM)
Sequence (P08684 whole entry): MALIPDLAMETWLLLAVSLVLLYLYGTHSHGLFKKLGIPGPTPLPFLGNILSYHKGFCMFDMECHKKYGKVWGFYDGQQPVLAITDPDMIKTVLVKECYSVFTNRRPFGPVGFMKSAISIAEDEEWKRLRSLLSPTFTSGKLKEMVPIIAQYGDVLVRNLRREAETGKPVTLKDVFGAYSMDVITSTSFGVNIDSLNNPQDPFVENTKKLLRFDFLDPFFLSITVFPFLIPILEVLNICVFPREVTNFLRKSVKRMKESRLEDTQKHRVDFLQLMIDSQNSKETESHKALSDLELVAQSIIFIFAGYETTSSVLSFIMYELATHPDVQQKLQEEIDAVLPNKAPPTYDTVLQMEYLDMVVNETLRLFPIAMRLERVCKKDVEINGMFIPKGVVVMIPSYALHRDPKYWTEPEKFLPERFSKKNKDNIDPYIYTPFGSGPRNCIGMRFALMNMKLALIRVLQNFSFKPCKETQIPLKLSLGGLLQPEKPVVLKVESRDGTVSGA
Assay: CYP Inhibition Assay in human liver microsomes, CYP3A4
Assay type: in vitro ADME
Settings: pH 7.4
assay_metric: inhibition at 10 µM (%)
Your answer should be a plain number; it is taken to be in %.

Query: Form field: reported inhibition at 10 µM of O=c1c2cc(-c3ccc(Cl)cc3)nc(-c3cccnc3)c2ncn1[C@H]1COC[C@@H]1O
Response: 23.8

Query: Again, but for C[C@H](n1cnc2c(-c3cnn(C)c3)nc(-c3ccc(Cl)cc3)cc2c1=O)C(C)(C)O
Response: 12.2

Query: Again, but for C[C@@H](CO)n1cnc2c(-c3cccnc3)nc(-c3ccc(C(F)(F)F)cn3)cc2c1=O
Response: 2.26

Query: Again, but for CC(C)(O)Cn1cnc2c(-c3cccnc3)nc(-c3ccc(Cl)cc3)cc2c1=O
Response: 35.2
